Origin of the recorded values: patent US20230056252A1

TARGET OR SYSTEM: T1, CD3 expressed on cell-surface of primary human T cells (human, UniProt P07766 23-207; P04234 22-171)
T1 construct: also called cell-surface CD3; human CD3
T1 sequence (P07766 23-207 limits assumed, chain 1 of 2): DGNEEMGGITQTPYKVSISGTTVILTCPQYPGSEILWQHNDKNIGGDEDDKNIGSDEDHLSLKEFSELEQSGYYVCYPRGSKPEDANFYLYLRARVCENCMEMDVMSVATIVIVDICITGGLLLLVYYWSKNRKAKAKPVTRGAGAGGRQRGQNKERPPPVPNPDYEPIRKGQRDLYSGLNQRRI
T1 sequence (P04234 22-171 limits assumed, chain 2 of 2): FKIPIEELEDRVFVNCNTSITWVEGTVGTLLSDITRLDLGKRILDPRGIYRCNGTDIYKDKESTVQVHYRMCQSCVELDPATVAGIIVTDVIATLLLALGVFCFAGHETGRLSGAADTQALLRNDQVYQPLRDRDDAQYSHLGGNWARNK
ASSAY SUMMARY: flow cytometry competition vs murine SP34-AF488 on human T cells, average

BINDER | IC50, µg/mL
huSP34.12.9 Fab-HF (Fab, V domains shown) VH: EVQLVESGGGLVQPGGSLRLSCAASGFTFSTYAMNWVRQAPGKGLEWVARIRSKYNNYATYYAASVKGRFTISRDDSKNSLYLQMNSLRTEDTAVYYCVRHGNFGHSYVSWFAYWGQGTLVTVSS VL: QAVVTQPPSLTVSPGGTVTLTCGSSTGAVTTGHYANWVQQKPGQAPRGLIGGTNKRAPGVPARFSGSLSGGKAALTISGAQPEDEAEYYCALWYSNLWVFGGGTKLTVL | 0.73
huSP34.11.9 Fab-HF (Fab, V domains shown) VH: EVQLVESGGGLVQPGGSLRLSCAASGFTFSTYAMNWVRQAPGKGLEWVGRIRSKYNNYATYYAASVKGRFTISRDDSKNSLYLQMNSLRTEDTAVYYCVRHGNFGHSYVSWFAYWGQGTLVTVSS VL: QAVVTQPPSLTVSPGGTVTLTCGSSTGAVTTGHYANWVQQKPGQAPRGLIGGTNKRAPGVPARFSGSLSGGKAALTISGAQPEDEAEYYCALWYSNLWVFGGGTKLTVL | 0.4
